- System: rodent lifetime carcinogenesis bioassay, tumor incidence TD50
- protocol.notes: carcinogenic potency in animals, long-term in vivo studies, CPDB compilation (AID 1745844)
- experimental.context: mouse; strain Swiss; females; in drinking water; site: liver; lesion: hyperplastic nodule; dosed 52 weeks; study length 52 weeks
experimental.endpoint: TD50 (mg/kg/day)
Give a bare numeral; the unit mg/kg/day is implied.

The reported TD50 value, rodent lifetime carcinogenesis bioassay, tumor incidence TD50, for "O=CCC=O" reads 44.3

* * *

- System: rodent lifetime carcinogenesis bioassay, tumor incidence TD50
- protocol.notes: carcinogenic potency in animals, long-term in vivo studies, CPDB compilation (AID 1745844)
- experimental.context: rat; strain Fischer 344; females; in feed; site: liver; lesion: hepatocellular adenoma + hepatocellular carcinoma + neoplastic nodule; dosed 101 weeks; study length 101 weeks
experimental.endpoint: TD50 (mg/kg/day)
Expressed in mg/kg/day, but write only the number.

Record "Cc1cc(C)c(N)cc1C" . Reported TD50: 27.2

* * *

- Tested on: rodent lifetime carcinogenesis bioassay, tumor incidence TD50
- protocol.notes: carcinogenic potency in animals, long-term in vivo studies, CPDB compilation (AID 1745844)
- experimental.context: rat; strain Fischer 344; males; in feed; site: liver; lesion: hepatocellular adenoma + hepatocellular carcinoma + neoplastic nodule; dosed 101 weeks; study length 101 weeks
experimental.endpoint: TD50 (mg/kg/day)
Kindly answer with a numeric value in mg/kg/day, unit omitted.

Form: compound = "Cc1cc(C)c(N)cc1C" ; TD50 = 43.8

* * *

- Test system: rodent lifetime carcinogenesis bioassay, tumor incidence TD50
- protocol.notes: carcinogenic potency in animals, long-term in vivo studies, CPDB compilation (AID 1745844)
- experimental.context: mouse; strain Swiss albino; females; in drinking water; site: lung; lesion: adenoma; dosed 118 weeks; study length 118 weeks
experimental.endpoint: TD50 (mg/kg/day)
Give the value in mg/kg/day but do not write mg/kg/day after it.

Summary: "NNC(N)=O" , rodent lifetime carcinogenesis bioassay, tumor incidence TD50, TD50 = 333

* * *

- System: rodent lifetime carcinogenesis bioassay, tumor incidence TD50
- protocol.notes: carcinogenic potency in animals, long-term in vivo studies, CPDB compilation (AID 1745844)
- experimental.context: hamster; strain Syrian Golden; females; inhaled; site: mammary gland; lesion: carcinoma; dosed 26 weeks; study length 104 weeks
experimental.endpoint: TD50

# TD50 of "C=CCl" = 32.3 mg/kg/day

* * *

- System: rodent lifetime carcinogenesis bioassay, tumor incidence TD50
- protocol.notes: carcinogenic potency in animals, long-term in vivo studies, CPDB compilation (AID 1745844)
- experimental.context: rat; strain MRC; females; by gavage; site: esophagus; lesion: several types; types named in the paper; dosed 67 weeks; study length 76 weeks
experimental.endpoint: TD50

The recorded TD50 for "CC(=O)CN(C)N=O" is 0.16 mg/kg/day

* * *

- System: rodent lifetime carcinogenesis bioassay, tumor incidence TD50
- protocol.notes: carcinogenic potency in animals, long-term in vivo studies, CPDB compilation (AID 1745844)
- experimental.context: rat; strain F344/DuCrj; males; in drinking water; site: kidney; lesion: several types; types named in the paper; dosed 104 weeks; study length 104 weeks
experimental.endpoint: TD50

Documented TD50 of "[O-][Br+2]([O-])O" : 28.7 mg/kg/day

* * *

- Tested on: rodent lifetime carcinogenesis bioassay, tumor incidence TD50
- protocol.notes: carcinogenic potency in animals, long-term in vivo studies, CPDB compilation (AID 1745844)
- experimental.context: rat; strain F344/DuCrj; males; in drinking water; site: nasal cavity; lesion: sarcoma, NOS; dosed 104 weeks; study length 105 weeks
experimental.endpoint: TD50 (mg/kg/day)
The figure you give is taken to be in mg/kg/day; do not add the unit.

Record summary for "C1COCCO1" : reported TD50 = 5270

* * *

- Tested on: rodent lifetime carcinogenesis bioassay, tumor incidence TD50
- protocol.notes: carcinogenic potency in animals, long-term in vivo studies, CPDB compilation (AID 1745844)
- experimental.context: mouse; strain BDF1; males; inhaled; site: lung; lesion: alveolar/bronchiolar adenoma; dosed 104 weeks; study length 104 weeks
experimental.endpoint: TD50 (mg/kg/day)
Answer format: numeric, mg/kg/day implied, no suffix.

Entry "C=C(C)CCl" — recorded TD50 = 1020

* * *

- Test system: rodent lifetime carcinogenesis bioassay, tumor incidence TD50
- protocol.notes: carcinogenic potency in animals, long-term in vivo studies, CPDB compilation (AID 1745844)
- experimental.context: rat; strain Sprague-Dawley; males; in feed; site: kidney cortex; lesion: renal-cell tumor; dosed 117 weeks; study length 117 weeks
experimental.endpoint: TD50

// sample "CCOc1ccc(NC(C)=O)cc1" , its TD50 was 1300 mg/kg/day

* * *

- System: rodent lifetime carcinogenesis bioassay, tumor incidence TD50
- protocol.notes: carcinogenic potency in animals, long-term in vivo studies, CPDB compilation (AID 1745844)
- experimental.context: rat; strain Osborne-Mendel; females; in feed; site: any site (literature study); lesion: several types; types named in the paper; dosed 80 weeks; study length 108 weeks
experimental.endpoint: TD50 (mg/kg/day)
Reply numerically in mg/kg/day, unit not repeated.

What the record says about C=C1C(CCl)(CCl)C2(Cl)C(Cl)C(Cl)C1(Cl)C2(Cl)Cl (stereo unspecified) : TD50 is 596

* * *

- Tested on: rodent lifetime carcinogenesis bioassay, tumor incidence TD50
- protocol.notes: carcinogenic potency in animals, long-term in vivo studies, CPDB compilation (AID 1745844)
- experimental.context: mouse; strain Charles River CD1; males; in feed; site: any site (literature study); lesion: malignant tumor; dosed 104 weeks; study length 104 weeks
Calls of active or inactive are those of the source. The rule behind the calls is not given here.
The following compounds are listed with their measured TD50 values.

• O=C(O)C1=NN(c2ccc(S(=O)(=O)O)cc2)C(=O)C1N=Nc1ccc(S(=O)(=O)O)cc1 (configuration not stated) = 1810 mg/kg/day (inactive)

Now, please, on to the next compound.
get_value(item= "O=C1OC2(c3ccccc31)c1cc(I)c(O)c(I)c1Oc1c2cc(I)c(O)c1I" , readout=TD50) returns 87600 mg/kg/day (inactive)

* * *

- Test system: rodent lifetime carcinogenesis bioassay, tumor incidence TD50
- protocol.notes: carcinogenic potency in animals, long-term in vivo studies, CPDB compilation (AID 1745844)
- experimental.context: mouse; strain BALB/cJ; males; in feed; site: liver; lesion: hepatoma; dosed 26 weeks; study length 47 weeks
experimental.endpoint: TD50 (mg/kg/day)
Express your answer in mg/kg/day, writing the number without its unit.

For reference, reported TD50 for "Clc1cccc(-c2ccc(Cl)c(Cl)c2Cl)c1Cl" stands at 64.6

* * *

- System: rodent lifetime carcinogenesis bioassay, tumor incidence TD50
- protocol.notes: carcinogenic potency in animals, long-term in vivo studies, CPDB compilation (AID 1745844)
- experimental.context: rat; strain Sprague-Dawley; females; in feed; site: mammary gland; lesion: adenocarcinoma; dosed 46 weeks; study length 64 weeks
experimental.endpoint: TD50

The recorded TD50 for entry "O=CNNc1nc(-c2ccc([N+](=O)[O-])o2)cs1" equals 19.5 mg/kg/day

* * *

- System: rodent lifetime carcinogenesis bioassay, tumor incidence TD50
- protocol.notes: carcinogenic potency in animals, long-term in vivo studies, CPDB compilation (AID 1745844)
- experimental.context: rat; strain Fischer 344; males; in feed; site: nasal cavity; lesion: neuroblastoma + olfactory neuroblastoma; dosed 104 weeks; study length 105 weeks
experimental.endpoint: TD50

Memo: "COc1ccc(C)cc1N" , reported TD50: 450 mg/kg/day

* * *

- System: rodent lifetime carcinogenesis bioassay, tumor incidence TD50
- protocol.notes: carcinogenic potency in animals, long-term in vivo studies, CPDB compilation (AID 1745844)
- experimental.context: rat; strain Fischer 344; males; in feed; site: skin; lesion: keratoacanthoma; dosed 104 weeks; study length 105 weeks
experimental.endpoint: TD50 (mg/kg/day)
Your answer should be a plain number; it is taken to be in mg/kg/day.

Data point: "OCC(CO)(CBr)CBr" ; TD50 = 235

* * *

- Tested on: rodent lifetime carcinogenesis bioassay, tumor incidence TD50
- protocol.notes: carcinogenic potency in animals, long-term in vivo studies, CPDB compilation (AID 1745844)
- experimental.context: mouse; strain Swiss albino; females; in drinking water; site: blood vessels; lesion: angioma; dosed 105 weeks; study length 105 weeks
experimental.endpoint: TD50 (mg/kg/day)
State the answer as a number, implicitly in mg/kg/day.

Form field TD50, entry "C=CCNN" : 163

* * *

- Tested on: rodent lifetime carcinogenesis bioassay, tumor incidence TD50
- protocol.notes: carcinogenic potency in animals, long-term in vivo studies, CPDB compilation (AID 1745844)
- experimental.context: mouse; strain Swiss; males; in drinking water; site: lung; lesion: adenocarcinoma; dosed 120 weeks; study length 124 weeks
The source made the active and inactive calls. How the calls were made is not given here.
experimental.endpoint: TD50

The reported TD50 value, rodent lifetime carcinogenesis bioassay, tumor incidence TD50, for "N" reads 7330 mg/kg/day (inactive)

* * *

- System: rodent lifetime carcinogenesis bioassay, tumor incidence TD50
- protocol.notes: carcinogenic potency in animals, long-term in vivo studies, CPDB compilation (AID 1745844)
- experimental.context: mouse; strain B6C3F1; females; oral dosing; site: lung; lesion: adenoma; dosed 68 weeks; study length 68 weeks
experimental.endpoint: TD50 (mg/kg/day)
Only the number, expressed in mg/kg/day, is required.

Record "CCOC(N)=O" has rodent lifetime carcinogenesis bioassay, tumor incidence TD50 TD50 equal to 97.4
